Ret: recorded values
Species: Rattus norvegicus
Assay: Open TG-GATES - Regimen: Single
Type: toxicity, organism-based, Sprague-Dawley
Parameters: regimen Single, gender Male, age 6 weeks
Conditions: in vivo, po, 300 mg/kg, 6 h, tissue Blood, route gavage, dose level Middle
Respond with the bare value in %.

Look over these answered cases.
[
  {
    "molecule": "O=C(O)c1cn(C2CC2)c2cc(N3CCNCC3)c(F)cc2c1=O",
    "Ret (%)": 10.5
  },
  {
    "molecule": "CCc1cc(C(N)=S)ccn1 [ETHIONAMIDE]",
    "Ret (%)": 7.8
  },
  {
    "molecule": "Clc1ccccc1CN1CCc2sccc2C1",
    "Ret (%)": 7.8
  },
  {
    "molecule": "O=C(O)c1cc(/N=N/c2ccc(S(=O)(=O)Nc3ccccn3)cc2)ccc1O",
    "Ret (%)": 7.4
  }
]

Could you please provide reported Ret for `C[C@H](CS)C(=O)N1CCC[C@H]1C(=O)O` ? Thanks!
8.2

====

MCHC: recorded values
Species: Rattus norvegicus
Assay: Open TG-GATES - Regimen: Single
Assay type: toxicity, organism-based, Sprague-Dawley
Design: regimen Single, gender Male, age 6 weeks
Conditions: in vivo, po, 0 mg/kg, 3 h, tissue Blood, route gavage, dose level Control
Respond with the bare value in %.

Look over these answered cases.
[
  {
    "compound": "C[C@H](CS)C(=O)N1CCC[C@H]1C(=O)O [CAPTOPRIL]",
    "MCHC, %": 33.1
  },
  {
    "compound": "CN(C)CCC=C1c2ccccc2CCc2ccccc21 [AMITRIPTYLINE]",
    "MCHC, %": 32.3
  },
  {
    "compound": "CC(=O)Oc1ccccc1C(=O)O [ASPIRIN]",
    "MCHC, %": 36.1
  },
  {
    "compound": "NC(=O)N/N=C/c1ccc([N+](=O)[O-])o1 [NITROFURAZONE]",
    "MCHC, %": 32
  },
  {
    "compound": "Cn1c(=O)c2[nH]cnc2n(C)c1=O.O [THEOPHYLLINE]",
    "MCHC, %": 33.2
  }
]

Could you please provide reported MCHC for CCc1cc(C(N)=S)ccn1 [ETHIONAMIDE] ? Thanks!
33.8

Could you please provide reported MCHC for Clc1ccccc1CN1CCc2sccc2C1 [TICLOPIDINE] ? Thanks!
35

====

Species on record: Rattus norvegicus
Test: Open TG-GATES - Regimen: Single
Type: toxicity, organism-based, Sprague-Dawley
Set-up: regimen Single, gender Male, age 6 weeks
Details: in vivo, po, 1000 mg/kg, 6 h, tissue Kidney, route gavage, dose level High
readout-name: KIDNEY_L (g)
Respond with the bare value in g.

Look over these answered cases.
[
  {
    "compound": "O=C(O)c1cn(C2CC2)c2cc(N3CCNCC3)c(F)cc2c1=O",
    "reported-measurement": 0.8
  },
  {
    "compound": "Clc1ccccc1CN1CCc2sccc2C1",
    "reported-measurement": 0.9
  },
  {
    "compound": "O=C(O)c1cc(/N=N/c2ccc(S(=O)(=O)Nc3ccccn3)cc2)ccc1O",
    "reported-measurement": 0.9
  }
]

Could you please provide reported KIDNEY_L for CCc1cc(C(N)=S)ccn1 [ETHIONAMIDE] ? Thanks!
1

Could you please provide reported KIDNEY_L for `C[C@H](CS)C(=O)N1CCC[C@H]1C(=O)O` ? Thanks!
1

====

Hb: recorded values
Species on record: Rattus norvegicus
Assay: Open TG-GATES - Regimen: Daily Repeat
Assay type: toxicity, organism-based, Sprague-Dawley
Set-up: regimen Daily Repeat, gender Male, age 6 weeks
Settings: in vivo, po, 0 mg/kg, […], tissue Blood, route gavage, dose level Control, time 14 day
Respond with the bare value in g/dL.

Look over these answered cases.
[
  {
    "molecule": "CC(=O)Oc1ccccc1C(=O)O",
    "reported-measurement": 14.2
  },
  {
    "molecule": "CN(C)CCC=C1c2ccccc2CCc2ccccc21",
    "reported-measurement": 13.8
  },
  {
    "molecule": "O=C(O)c1cc(/N=N/c2ccc(S(=O)(=O)Nc3ccccn3)cc2)ccc1O",
    "reported-measurement": 14.7
  },
  {
    "molecule": "NC(=O)N/N=C/c1ccc([N+](=O)[O-])o1",
    "reported-measurement": 13.6
  },
  {
    "molecule": "CO[C@H]1/C=C/O[C@@]2(C)Oc3c(C)c(O)c4c(O)c(c(/C=N/N5CCN(C)CC5)c(O)c4c3C2=O)NC(=O)/C(C)=C\\C=C\\[C@H](C)[C@H](O)[C@@H](C)[C@@H](O)[C@@H](C)[C@H](OC(C)=O)[C@@H]1C",
    "reported-measurement": 15
  },
  {
    "molecule": "CCc1cc(C(N)=S)ccn1 [ETHIONAMIDE]",
    "reported-measurement": 14.8
  },
  {
    "molecule": "NC(=O)N1c2ccccc2C=Cc2ccccc21 [CARBAMAZEPINE]",
    "reported-measurement": 14.5
  },
  {
    "molecule": "COc1ccc(Cc2nccc3cc(OC)c(OC)cc23)cc1OC",
    "reported-measurement": 14.6
  }
]

API: the following record is the query input.
Could you please provide reported Hb for `Cn1c(=O)c2[nH]cnc2n(C)c1=O.O` ? Thanks!
14.5

====

RBC: recorded values
Organism: Rattus norvegicus
Experiment: Open TG-GATES - Regimen: Single
Type: toxicity, organism-based, Sprague-Dawley
Design: regimen Single, gender Male, age 6 weeks
Conditions: in vivo, po, 100 mg/kg, 3 h, tissue Blood, route gavage, dose level Low
Respond with the bare value in x10_4/ul.

Look over these answered cases.
[
  {
    "molecule": "O=C(O)c1cn(C2CC2)c2cc(N3CCNCC3)c(F)cc2c1=O",
    "readout-name": "RBC",
    "units-symbol": "x10_4/ul",
    "reported-measurement": 572.8
  },
  {
    "molecule": "C[C@H](CS)C(=O)N1CCC[C@H]1C(=O)O",
    "readout-name": "RBC",
    "units-symbol": "x10_4/ul",
    "reported-measurement": 624.2
  },
  {
    "molecule": "Clc1ccccc1CN1CCc2sccc2C1",
    "readout-name": "RBC",
    "units-symbol": "x10_4/ul",
    "reported-measurement": 628
  },
  {
    "molecule": "O=C(O)c1cc(/N=N/c2ccc(S(=O)(=O)Nc3ccccn3)cc2)ccc1O",
    "readout-name": "RBC",
    "units-symbol": "x10_4/ul",
    "reported-measurement": 605.4
  }
]

Could you please provide reported RBC for CCc1cc(C(N)=S)ccn1 [ETHIONAMIDE] ? Thanks!
635.8

====

Species on record: Rattus norvegicus
Assay: Open TG-GATES - Regimen: Single
Format: toxicity, organism-based, Sprague-Dawley
Parameters: regimen Single, gender Male, age 6 weeks
Conditions: in vivo, po, 1000 mg/kg, 6 h, tissue Blood, route gavage, dose level High
readout-name: MCH (pg)
Respond with the bare value in pg.

[
  {
    "compound": "CCc1cc(C(N)=S)ccn1 [ETHIONAMIDE]",
    "reported-measurement": 21.9
  },
  {
    "compound": "Clc1ccccc1CN1CCc2sccc2C1",
    "reported-measurement": 21.6
  },
  {
    "compound": "C[C@H](CS)C(=O)N1CCC[C@H]1C(=O)O",
    "reported-measurement": 21.1
  }
]

Could you please provide reported MCH for `O=C(O)c1cc(/N=N/c2ccc(S(=O)(=O)Nc3ccccn3)cc2)ccc1O` ? Thanks!
21.3

====

LIVER: recorded values
Organism: Rattus norvegicus
Test: Open TG-GATES - Regimen: Daily Repeat
Assay type: toxicity, organism-based, Sprague-Dawley
Parameters: regimen Daily Repeat, gender Male, age 6 weeks
Conditions: in vivo, po, 0 mg/kg, […], tissue Liver, route gavage, dose level Control, time 14 day
Respond with the bare value in g.

Look over these answered cases.
[
  {
    "molecule": "NC(=O)N/N=C/c1ccc([N+](=O)[O-])o1",
    "units-symbol": "g",
    "LIVER": 15.1
  },
  {
    "molecule": "O=C(O)c1cn(C2CC2)c2cc(N3CCNCC3)c(F)cc2c1=O",
    "units-symbol": "g",
    "LIVER": 13.3
  }
]

Could you please provide reported LIVER for CSc1ccc2c(c1)N(CCC1CCCCN1C)c1ccccc1S2 (stereo not drawn) ? Thanks!
15.6

Could you please provide reported LIVER for `Cn1c(=O)c2[nH]cnc2n(C)c1=O.O` ? Thanks!
15.4

Could you please provide reported LIVER for `CO[C@H]1/C=C/O[C@@]2(C)Oc3c(C)c(O)c4c(O)c(c(/C=N/N5CCN(C)CC5)c(O)c4c3C2=O)NC(=O)/C(C)=C\C=C\[C@H](C)[C@H](O)[C@@H](C)[C@@H](O)[C@@H](C)[C@H](OC(C)=O)[C@@H]1C` ? Thanks!
13.9

Could you please provide reported LIVER for `C[C@H](CS)C(=O)N1CCC[C@H]1C(=O)O` ? Thanks!
15.7

Could you please provide reported LIVER for NC(=O)N1c2ccccc2C=Cc2ccccc21 [CARBAMAZEPINE] ? Thanks!
13.6

Could you please provide reported LIVER for `CN(C)CCC=C1c2ccccc2CCc2ccccc21` ? Thanks!
14

Values from ChEMBL document CHEMBL3885861
